Reference for the values: PubChem BioAssay (NCATS)

system: DIV30; experiment: qHTS profiling for inhibitors of Plasmodium falciparum proliferation (AID 504749);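 note: 0% = DMSO vehicle and full inhibition = artemisinin control; nearly all actives have a fitted effect of over 60% in size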; details: P. falciparum in erythrocytes, SYBR Green DNA, 72 h; series mostly up to 28.7 µM
Inconclusive results are not listed. The source made the active and inactive calls. Calls come from the whole dose curve; as a rule, active = well fitted inhibition curve with a large enough effect; inconclusive = small, poorly fitted or top-dose-only effect; inactive = flat fitted curve, though single readings scatter.
Select the matching outcome among 1 = active, 0 = inactive

Answered cases to consult:
{"columns": ["COMPOUND", "TARGET_SYSTEM", "CLASS_ASSIGNMENT"],
 "data": [
  ["CCOC(=O)C(C)(C)Oc1ccc(Cl)cc1", "DIV30", 0],
  ["N[C@@H](Cc1c[nH]c2ccc(O)cc12)C(=O)O", "DIV30", 0],
  ["CN(C)c1nc(N(C)C)nc(N(C)C)n1", "DIV30", 0],
  ["CC12CC3CC(C)(C1)CC(N)(C3)C2", "DIV30", 0],
  ["COc1ccc2[nH]cc(CCNC(C)=O)c2c1", "DIV30", 0],
  ["Cc1cc(C(C)(C)C)c(O)c(C)c1CC1=NCCN1", "DIV30", 0]
]}

Next up:
So what was the verdict on CC(C)C(=O)Nc1ccc([N+](=O)[O-])c(C(F)(F)F)c1 in this test? 0
